These measurements were taken from patent US9359371B2.

# AUC(0-inf) annotations
- measurement protocol: Pharmacokinetics (PK) in SD rats
- Assay type: in vivo
- experimental context: SD, plasma; rat, intravenous injection, 1 mg/kg
reported metric: AUC(0-inf)

compound="COc1ccc(CNc2nc(N3CC4CC4C3CO)ncc2C(=O)NCc2ccccc2)cc1Cl (stereo not shown)" endpoint_result="212 ng·h/mL"
compound=COc1ccc(CNc2nc(N3CCC4(CC4)C3)ncc2C(=O)NCc2ccccn2)cc1Cl endpoint_result="205 ng·h/mL"
compound="COc1ccc(CNc2nc(N3CCC[C@H]3CO)ncc2C(=O)N[C@H]2CC[C@H](O)CC2)cc1Cl [WO-88, reference compound]" endpoint_result="347 ng·h/mL"
compound=COc1ccc(CNc2nc(N3CCC4(CCC4)CC3)ncc2C(=O)NCc2ncccn2)cc1Cl endpoint_result="237 ng·h/mL"
